Target: T1, cynomolgus monkey OX40 protein (Novoprotein, #CB17) (cynomolgus monkey)
T1 construct: Bought recombinant protein; also called cyno OX40
Experiment: BLI, antibody on ProA sensor, 1:1 global fit
Reported Kd values are given for each entry in this list.

{"columns": ["binder", "result_unit", "Kd"],
 "data": [
  ["PR002077 (antibody, human IgG1, V domains shown, no light chain; also called anti-OX40 HCAb antibody) VH: EVQLLESGGGLVQPGGSLRLSCAASGFTFSSYAMSWVRQAPGKGLEWVSAISGRGNITFYADSVRGRFTISRDNSKNTLYLQMNSLRAEDTAVYYCANGITGTTDVDYWGQGTLVTVSS", "nM", 22.1],
  ["Pogalizumab analog (PR003475) (antibody, human IgG1, kappa, V domains shown, Conventional IgG antibody; also called Tab) VH: EVQLVQSGAEVKKPGASVKVSCKASGYTFTDSYMSWVRQAPGQGLEWIGDMYPDNGDSSYNQKFRERVTITRDTSTSTAYLELSSLRSEDTAVYYCVLAPRWYFSVWGQGTLVTVSS VL: DIQMTQSPSSLSASVGDRVTITCRASQDISNYLNWYQQKPGKAPKLLIYYTSRLRSGVPSRFSGSGSGTDFTLTISSLQPEDFATYYCQQGHTLPPTFGQGTKVEIKR", "nM", 0.0894],
  ["PR002066 (antibody, human IgG1, V domains shown, no light chain; also called anti-OX40 HCAb antibody) VH: EVQLLESGGGLVQPGGSLRLSCIASGFTFSSYAMSWVRQAPGKGLEWVSAISGRGGSTFYADSVRGRFTISRDNSKNTLYLQMNSLRAEDTAVYYCANGMTGTTDVDYWGQGTQVTVSS", "nM", 22.7],
  ["PR002063 (antibody, human IgG1, V domains shown, no light chain; also called anti-OX40 HCAb antibody) VH: EVQLLESGGGLVQPGGSLRLSCAASGFTFSSYAMSWVRQAPGRGLEWVSAISGGGGSTFYADSVRGRFTISRDNSKNTLYLQMSSLRAEDTAVYYCANGMTGTTDVDYWGQGTRVTVSS", "nM", 53.4],
  ["PR002067 (antibody, human IgG1, V domains shown, no light chain; also called anti-OX40 HCAb antibody) VH: EVQLLESGGGLVQPGGSLRLSCAASGFTFSSYAMSWVRQAPGKGLEWVSAISGRGGSTFYADSVRGRFTISRDNSKNTLYLQMNSLRAEDTAMYYCVDGTTGTTDVDYWGQGTLVTVSS", "nM", 19.2]
]}
